Test: amyloid nucleation score (Sup35N fusion, yeast selection) (log enrichment); library NNK3; higher = more nucleation; inactive = no reads after selection;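 note: zero at mode of non-aggregating sequences after 7 days selection at 30°C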
measurement kind: amyloid nucleation score

Illustrative cases are given below, each with its answer.
substance	measurement kind	result
LPIQVSFVMVRWGSMFMFRN	amyloid nucleation score	inactive
IHYPKCVAGLCSRSLCTAVV	amyloid nucleation score	inactive
PGRGLMRLYCYRFEIKTTEP	amyloid nucleation score	0.82
KLCYNNCVNLLII	amyloid nucleation score	0.716

So what's the measured amyloid nucleation score for this one? YSYTILHNFNKCSVKTLIFF 2.38

So what's the measured amyloid nucleation score for this one? VRSQGLHRRVFFIATGIKLG inactive

So what's the measured amyloid nucleation score for this one? YPNDLTRVFDRDNNLLGTHG 0.551

So what's the measured amyloid nucleation score for this one? TVRFEGIGSHVRHTFCALDF inactive

So what's the measured amyloid nucleation score for this one? CVFLKKPEKMQLLASSFNS inactive

----------
Experiment: amyloid nucleation score (Sup35N fusion, yeast selection) (log enrichment); library NNK3; higher = more nucleation; inactive = no reads after selection
measurement kind: amyloid nucleation score

substance	amyloid nucleation score
NLVAMVYSLLSSNWKEVISK	-0.406
FFANKYSLFAVVTMLANFLY	inactive
YYDHGNFRCMSTKRPVWQVF	inactive
VSCMLLSRDLCLQSFIWMLL	inactive

So what's the measured amyloid nucleation score for this one? FFLPSG inactive

So what's the measured amyloid nucleation score for this one? LRASFWECLCCCVVR 2.33

So what's the measured amyloid nucleation score for this one? AAHCYNGVLKGVI inactive

----------
Assay: amyloid nucleation score (Sup35N fusion, yeast selection) (log enrichment); library NNK2; higher = more nucleation; inactive = no reads after selection
measurement kind: amyloid nucleation score
Reply with the value as a number alone.

So what's the measured amyloid nucleation score for this one? FVSIVPYRFL -1.56

So what's the measured amyloid nucleation score for this one? FSVDMHRWLMTWRHQRDRRV 2.75

So what's the measured amyloid nucleation score for this one? GKCYFA -1.87

So what's the measured amyloid nucleation score for this one? DALQSSFTTLLLYNAIEDVY -0.317

So what's the measured amyloid nucleation score for this one? TLHCRSILGELLYVDMVKDD -0.297

So what's the measured amyloid nucleation score for this one? NFVILLCKQN 5.2

So what's the measured amyloid nucleation score for this one? GMWFPLWFVDSSNSMSLLCV -1.59

So what's the measured amyloid nucleation score for this one? DNCLTGIEWI -1.83

So what's the measured amyloid nucleation score for this one? LGYLIPNDEYFILWVIVCWN -0.024

So what's the measured amyloid nucleation score for this one? WVYNLALCNSRVIKG -0.51

So what's the measured amyloid nucleation score for this one? VVVRNGLLNISFKVNRCGFG 8.66

So what's the measured amyloid nucleation score for this one? RSGLYM -0.55

So what's the measured amyloid nucleation score for this one? KLTFSCGGLGGNLYVWL 8

So what's the measured amyloid nucleation score for this one? SYRSRVQYLCGNSMCLHAPI 5.15

So what's the measured amyloid nucleation score for this one? VTEHRNHIKTWTTQSSLCDW 0.124

So what's the measured amyloid nucleation score for this one? DCWWYRLDSMYDLTYLGIGR -1.03

So what's the measured amyloid nucleation score for this one? KDAPKFIYFSQLTTKCITRY 4.14

----------
Test: amyloid nucleation score (Sup35N fusion, yeast selection) (log enrichment); library NNK2; higher = more nucleation; inactive = no reads after selection
For each record, write down the corresponding amyloid nucleation score.
Reply with the value as a number alone.

So what's the measured amyloid nucleation score for this one? LGTEAEWCVGLMCSVKRYQM 4.58

So what's the measured amyloid nucleation score for this one? LRNHSHA 0.685

So what's the measured amyloid nucleation score for this one? IAICVNARE 0.838

So what's the measured amyloid nucleation score for this one? EGCMSFFKRSQYATDQDLGA -0.24

So what's the measured amyloid nucleation score for this one? QLWMTQTRTPSSKIRSKP 0.641

So what's the measured amyloid nucleation score for this one? MRTNRLKSVV 0.275

So what's the measured amyloid nucleation score for this one? IIHDLSSFRKCSLHPDIGSS -0.373

So what's the measured amyloid nucleation score for this one? NNYIVTW 0.233

----------
Experiment: amyloid nucleation score (Sup35N fusion, yeast selection) (log enrichment); library NNK2; higher = more nucleation; inactive = no reads after selection
For each record, write down the corresponding amyloid nucleation score.
Reply with the value as a number alone.

So what's the measured amyloid nucleation score for this one? MSKYFWVSRGSSIITTW -0.539

So what's the measured amyloid nucleation score for this one? LACIPGGKVNSPLGWHGFRD 0.057

So what's the measured amyloid nucleation score for this one? RFRTKLECPYMIS 0.453

So what's the measured amyloid nucleation score for this one? SRVFRSRMDGPFQWSGMGEV 2.24

So what's the measured amyloid nucleation score for this one? RWFIDYHGSVFCFQKYIPPV -0.526

So what's the measured amyloid nucleation score for this one? VDIASLKLTSNH -0.213

So what's the measured amyloid nucleation score for this one? AVVTPKMIMMGWTEGGINVR -0.864

So what's the measured amyloid nucleation score for this one? YAIKMGFASQVSVEFRWLYK -0.244

So what's the measured amyloid nucleation score for this one? SFVRPGGWPNK -0.264

So what's the measured amyloid nucleation score for this one? GHMVYRTNVGRSV 0.187

So what's the measured amyloid nucleation score for this one? KLVVLCFLSVIVWVNGQR 4.67

So what's the measured amyloid nucleation score for this one? PLLFTWAVLINALWVKSTPG -0.19

So what's the measured amyloid nucleation score for this one? KSIAGNC -1.48

So what's the measured amyloid nucleation score for this one? VIDTCGDVNRSRGQVLSGGV 0.293

So what's the measured amyloid nucleation score for this one? PSVFEGRK -0.843

So what's the measured amyloid nucleation score for this one? AISHQPLWLLCHVVHLFRNS 0.279

So what's the measured amyloid nucleation score for this one? RSITGCDWFLH 0.063

So what's the measured amyloid nucleation score for this one? SVIISVVD -0.851

So what's the measured amyloid nucleation score for this one? VFCHLE 2.43

So what's the measured amyloid nucleation score for this one? SNIRISTADDSNSFLPFSSA -0.315

So what's the measured amyloid nucleation score for this one? SWMIYLCRVGTITRMQDWLW -0.445

So what's the measured amyloid nucleation score for this one? LFSHFYSYDY -0.317

So what's the measured amyloid nucleation score for this one? FIFVLI 3.08

So what's the measured amyloid nucleation score for this one? YSVFNTSNFSALDPRFRRLF 0.201

So what's the measured amyloid nucleation score for this one? ADGVSSWLTVLTFSHWRVK 1

So what's the measured amyloid nucleation score for this one? LSMVYYATFDGF -1.01

So what's the measured amyloid nucleation score for this one? KPEVRVEMQCNYVAWYTDMI -0.61

So what's the measured amyloid nucleation score for this one? YEHRNGLWSMKKRLIG 0.253

So what's the measured amyloid nucleation score for this one? ECSRSINYLRLVLNLE 0.708

So what's the measured amyloid nucleation score for this one? NWASKTFYGSYGSRYCQFGE 1.07

So what's the measured amyloid nucleation score for this one? VLSRVDQSTGVIGQTGMVAC 0.6

So what's the measured amyloid nucleation score for this one? AYMKYHAIRLNARFCGS 3.53

So what's the measured amyloid nucleation score for this one? DIVMCFLGRHHQSTEAGLSM 4.49

----------
Assay: amyloid nucleation score (Sup35N fusion, yeast selection) (log enrichment); library NNK2; higher = more nucleation; inactive = no reads after selection
In this scheme, each record receives a class according to its amyloid nucleation score; the ranges are lower level (below -0.3), middle level (-0.3 to below 2), upper level (2 or more)

Returns: class label. Input: EGFHGRMCHEHGKVLKAID middle level

Returns: class label. Input: IRRVSAQVCINWSIEWKSTR middle level

Returns: class label. Input: SDICTLAEQSGASIRDRLTL middle level

Returns: class label. Input: TLVVRGHC upper level

Returns: class label. Input: RLDLYRNMAMVVWQSIDEPP middle level

Returns: class label. Input: RVDARERNELDGIYFIVGSS middle level

Returns: class label. Input: FYDVSCTRTDIMVESTSRLS upper level

Returns: class label. Input: HSYFRFTPSFLAARSKYLRH lower level

Returns: class label. Input: IVCDWRTP middle level

Returns: class label. Input: DLFNRNIVVCSLFLGYMVTI upper level

Returns: class label. Input: LSKMWPPIHTTLIPLTDAER upper level

Returns: class label. Input: SDMDYLWLCIVRTVLNVIYR lower level

Returns: class label. Input: IGNDFNANM lower level

Returns: class label. Input: LLMQVIRPVNLLFRWRELWA middle level

Returns: class label. Input: TFGYCISLMTLTFVH middle level

Returns: class label. Input: IPRIRR middle level

Returns: class label. Input: YPCVMFFPEPGEYCLVYRC lower level

Returns: class label. Input: WGHFAMVRA middle level

Returns: class label. Input: PGYNSFLWWAAME middle level

Returns: class label. Input: HGYSWCCFHVGS upper level

Returns: class label. Input: FSSFDIMRQLTMLNICLVSW upper level

Returns: class label. Input: KFKVHQMQDVLSWVGYHDGS upper level

Returns: class label. Input: WYVYSQ upper level

Returns: class label. Input: NNSYTGPVSCNHVAGCGTGH lower level

Returns: class label. Input: MLNLVATVLWDWSVDCSWQV middle level

Returns: class label. Input: SGEARQH lower level

Returns: class label. Input: ILQGADLKLVYFVNHRMERV middle level

Returns: class label. Input: FYTYCSLGWTEAAGAVFLES lower level

Returns: class label. Input: CLVDGLANVHVYRENLGF lower level
